These data points were gathered from patent US20160159814A1.

Below is a list of entries, each paired with its recorded IC50 value.
# SYSTEM TESTED: human type 1 glycine transporter (GlyT1) (Homo sapiens)
# Construct: T98G cells (glioma cells) expressing human type 1 glycine transporter (GlyT1) were used; endogenous in cells; host or cells: T98G cells (human glioma cells)
# Sequence (P48067 1-706): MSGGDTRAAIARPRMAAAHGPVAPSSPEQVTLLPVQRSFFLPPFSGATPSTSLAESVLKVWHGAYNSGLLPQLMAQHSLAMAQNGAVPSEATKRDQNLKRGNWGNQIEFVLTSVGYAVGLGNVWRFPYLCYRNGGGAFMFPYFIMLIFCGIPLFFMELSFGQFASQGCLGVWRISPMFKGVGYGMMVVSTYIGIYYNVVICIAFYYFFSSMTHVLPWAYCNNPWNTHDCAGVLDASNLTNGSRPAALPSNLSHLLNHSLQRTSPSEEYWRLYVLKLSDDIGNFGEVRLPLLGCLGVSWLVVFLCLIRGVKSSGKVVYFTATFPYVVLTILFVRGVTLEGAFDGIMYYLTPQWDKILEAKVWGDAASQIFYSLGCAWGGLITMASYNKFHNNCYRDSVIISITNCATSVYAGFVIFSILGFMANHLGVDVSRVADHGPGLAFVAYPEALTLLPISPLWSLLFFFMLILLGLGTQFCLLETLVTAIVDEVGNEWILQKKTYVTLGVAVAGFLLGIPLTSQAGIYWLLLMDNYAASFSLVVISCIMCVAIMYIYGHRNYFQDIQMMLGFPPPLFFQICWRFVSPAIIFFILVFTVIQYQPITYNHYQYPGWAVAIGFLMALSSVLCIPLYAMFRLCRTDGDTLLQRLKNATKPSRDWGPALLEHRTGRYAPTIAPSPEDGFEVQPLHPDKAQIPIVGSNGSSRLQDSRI
# ASSAY: Glycine uptake inhibition experiment ([3H] glycine uptake in T98G cells expressing GlyT1)
# Type: cell-based
# MEASUREMENT CONTEXT: glycine uptake inhibition
Report as a plain number; the unit nM is understood.

Some solved cases for reference:
>>> df
                                   compound                             system_tested  result_type  result_number
0  C[C@H](O)c1cccc2c1C(F)(F)C(=O)N2Cc1cccc(C#N)c1 [Compound 57]  human type 1 glycine transporter (GlyT1) (Homo sapiens)         IC50             15
1  CC(O)c1cccc2c1C(F)(F)C(=O)N2Cc1cccc(Cl)n1 (single isomer, unassigned) [Compound 4]  human type 1 glycine transporter (GlyT1) (Homo sapiens)         IC50            6.5
2  O=C1N(Cc2ccnc(Cl)c2)c2cccc(C(O)C(F)F)c2C1(F)F (single isomer, unassigned) [Compound 35]  human type 1 glycine transporter (GlyT1) (Homo sapiens)         IC50            280

# input Using human type 1 glycine transporter (GlyT1) (Homo sapiens) as the test system, report measured IC50 of C[C@H](O)c1cccc2c1C(F)(F)C(=O)N2Cc1cccnc1 [Compound 61] .
# output 420
